Source of measurements: the supplement of paper PMC10567573

B1: BRF1 (parent)
chain: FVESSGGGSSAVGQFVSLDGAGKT

# Variants of: B1
# run_description: protein stability index of a GFP-peptide fusion (GPS, HEK-293T) (PSI 1-6); higher = more stable;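 note: lentivirally expressed fusions sorted by FACS into six bins by GFP to DsRed ratio, PSI derived from sequencing read proportions per bin multiplied by bin number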
# condition_details: c terminus: a fixed tail appended
Entries are sorted into classes by protein stability index as follows: low bin = under 2, mid bin = from 2 up to 3, high bin = 3 and over

Before answering, review these 5 worked examples.
>>> df
   changes  category_label
0     S10G         mid bin
1     G13V         mid bin
2     A11R         low bin
3     L18E        high bin
4      G6V         mid bin

In: # bin label for S5Q
Out: mid bin

In: Input G8A ; output its category
Out: mid bin

In: Which bin, given its protein stability index, does K23T occupy?
Out: mid bin

In: Class (by measured protein stability index) for T24P
Out: mid bin

In: Quick check: band for K23G
Out: mid bin
